# System name: CYP3A4 (Homo sapiens)
# Construct: purchased ThermoFisher P2857; host or cells: baculosomes (insect-cell microsomes, own knowledge)
# Sequence (P08684 whole entry): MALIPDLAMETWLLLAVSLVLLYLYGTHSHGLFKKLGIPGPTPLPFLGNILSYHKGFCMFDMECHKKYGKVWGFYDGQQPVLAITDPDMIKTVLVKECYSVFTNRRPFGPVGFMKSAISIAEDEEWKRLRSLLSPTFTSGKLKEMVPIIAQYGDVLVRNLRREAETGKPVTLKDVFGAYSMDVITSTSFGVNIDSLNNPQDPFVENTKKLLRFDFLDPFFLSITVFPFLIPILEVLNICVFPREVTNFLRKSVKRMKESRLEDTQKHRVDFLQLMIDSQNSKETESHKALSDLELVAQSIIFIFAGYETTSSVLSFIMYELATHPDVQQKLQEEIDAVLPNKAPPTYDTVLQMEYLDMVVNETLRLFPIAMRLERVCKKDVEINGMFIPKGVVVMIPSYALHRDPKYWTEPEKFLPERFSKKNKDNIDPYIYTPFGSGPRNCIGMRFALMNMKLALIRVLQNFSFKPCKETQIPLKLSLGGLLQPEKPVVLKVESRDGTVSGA
# Assay comment: CYP3A4 enzyme assay (Vivid CYP3A4 Green Screening Kit)
# Format: in vitro ADME
# Stated conditions: human, recombinant CYP3A4 baculosomes (cell-free), probe Vivid substrate (Vivid CYP3A4 Green Screening Kit); dose-response, FIG. 2 / FIG. 6; read-out: IC50 for CYP3A4 inhibition
Measured property: IC50 at 60 min

Problem: Name the recorded IC50 at 60 min for CCC(C)n1ncn(-c2ccc(N3CCN(c4ccc(OC[C@@H]5CO[C@@](Cn6cnnn6)(c6ccc(Cl)cc6Cl)O5)cc4)CC3)cc2)c1=O (stereo partly shown) .
Result: > 20 µM

These data points were gathered from patent US12071430B2.
